# key: entry, value: AUC(0-inf)
# Assay remarks: Pharmacokinetic (PK) analysis in rats
# Format: in vivo, Sprague Dawley (SD) rats
# Recorded conditions: Sprague-Dawley, rat, plasma, po; SD rats, single intragastric administration, 5 mg/kg; read-out: Area Under Curve AUC0-∞

CO[C@H]1COCC1Nc1cc(NC(=O)N2CCCc3cc(CN4C(=O)OCC4C)c(C=O)nc32)ncc1C#N (stereo partly shown) [Example 46]
1530 ng·h/mL
COCC1(Nc2cc(NC(=O)N3CCCc4cc(CN5CCOCC5=O)c(C=O)nc43)ncc2C#N)CC1 [Example 11]
3960 ng·h/mL
CO[C@@H]1CCCC1Nc1cc(NC(=O)N2CCCc3cc(CN4CCOCC4=O)c(C=O)nc32)ncc1C#N (stereo partly shown) [Example 1]
5040 ng·h/mL
CO[C@@H]1CCC[C@H]1Nc1cc(NC(=O)N2CCCc3cc(CN4CCOCC4=O)c(C=O)nc32)ncc1C#N [Example 60]
3790 ng·h/mL

Inquiry: Find the recorded AUC(0-inf) belonging to CO[C@@H]1CCCC1Oc1cc(NC(=O)N2CCCc3cc(CN4CCOCC4=O)c(C=O)nc32)ncc1C#N (stereo partly shown) [Example 16] and report it.
Reply text: 5610 ng·h/mL

Inquiry: Find the recorded AUC(0-inf) belonging to CO[C@@H]1CCN(c2cc(NC(=O)N3CCCc4cc(CN5CCCCOC5=O)c(C=O)nc43)ncc2C#N)C1 [Example 31] and report it.
Reply text: 1920 ng·h/mL

Inquiry: Find the recorded AUC(0-inf) belonging to COCCSc1cc(NC(=O)N2CCCc3cc(CN4CCOCC4=O)c(C=O)nc32)ncc1C#N [Example 13] and report it.
Reply text: 3570 ng·h/mL

###

# Assay remarks: Pharmacokinetic (PK) analysis in rats
# Format: in vivo, Sprague Dawley (SD) rats
# Recorded conditions: SD rats, single intragastric administration, 5 mg/kg; (sampling in hours)
# key: entry, value: Peak Time tmax
The figure you give is taken to be in h; do not add the unit.

CO[C@H]1COCC1Oc1cc(NC(=O)N2CCCc3cc(CN4CCOCC4=O)c(C=O)nc32)ncc1C#N (stereo partly drawn) [Example 67]
4
CO[C@H]1CCC[C@@H]1Nc1cc(NC(=O)N2CCCc3cc(CN4CCOCC4=O)c(C=O)nc32)ncc1C#N [Example 59]
2
CO[C@@H]1CCN(c2cc(NC(=O)N3CCCc4cc(CN5C(=O)OC[C@@H]5C)c(C=O)nc43)ncc2C#N)C1 [Example 38]
2

Inquiry: Find the recorded Peak Time tmax belonging to N#Cc1cnc(NC(=O)N2CCCc3cc(CN4CCOCC4=O)c(C=O)nc32)cc1S[C@@H]1CCOC1 [Example 56] and report it.
Reply text: 4

Inquiry: Find the recorded Peak Time tmax belonging to COCCNc1cc(NC(=O)N2CCCc3cc(CN4CCCOCC4=O)c(C=O)nc32)ncc1C#N [Example 6] and report it.
Reply text: 2

Inquiry: Find the recorded Peak Time tmax belonging to COCCNc1cc(NC(=O)N2CCCc3cc(CN4CCCCOC4=O)c(C=O)nc32)ncc1C#N [Example 23] and report it.
Reply text: 2

Inquiry: Find the recorded Peak Time tmax belonging to COC[C@@H](C)Oc1cc(NC(=O)N2CCCc3cc(CN4C(=O)OCC45CC5)c(C=O)nc32)ncc1C#N [Example 42] and report it.
Reply text: 2

Inquiry: Find the recorded Peak Time tmax belonging to COCCNc1cc(NC(=O)N2CCCc3cc(CN4CCN(C5CC5)CC4=O)c(C=O)nc32)ncc1C#N [Example 65] and report it.
Reply text: 2

Inquiry: Find the recorded Peak Time tmax belonging to CO[C@@H]1CCCC1Nc1cc(NC(=O)N2CCCc3cc(CN4CCOCC4=O)c(C=O)nc32)ncc1C#N (stereo partly drawn) [Example 1] and report it.
Reply text: 0.5

Inquiry: Find the recorded Peak Time tmax belonging to CO[C@@H]1CCC[C@H]1Nc1cc(NC(=O)N2CCCc3cc(CN4CCOCC4=O)c(C=O)nc32)ncc1C#N [Example 60] and report it.
Reply text: 2

Inquiry: Find the recorded Peak Time tmax belonging to CO[C@H]1CCN(c2cc(NC(=O)N3CCCc4cc(CN5CCOCC5=O)c(C=O)nc43)ncc2C#N)C1 [Example 51] and report it.
Reply text: 2

Inquiry: Find the recorded Peak Time tmax belonging to CO[C@@H]1CCN(c2cc(NC(=O)N3CCCc4cc(CN5CCCCOC5=O)c(C=O)nc43)ncc2C#N)C1 [Example 31] and report it.
Reply text: 2

Inquiry: Find the recorded Peak Time tmax belonging to CO[C@@H]1CCC1Oc1cc(NC(=O)N2CCCc3cc(CN4CCOCC4=O)c(C=O)nc32)ncc1C#N (stereo partly drawn) [Example 61] and report it.
Reply text: 2

Inquiry: Find the recorded Peak Time tmax belonging to COCC1(Nc2cc(NC(=O)N3CCCc4cc(CN5CCOCC5=O)c(C=O)nc43)ncc2C#N)CC1 [Example 11] and report it.
Reply text: 2

Inquiry: Find the recorded Peak Time tmax belonging to CO[C@H]1COCC1Nc1cc(NC(=O)N2CCCc3cc(CN4CCOCC4=O)c(C=O)nc32)ncc1C#N (stereo partly drawn) [Example 66] and report it.
Reply text: 4

Inquiry: Find the recorded Peak Time tmax belonging to CO[C@H]1CCN(c2cc(NC(=O)N3CCCc4cc(CN5CCN(C)CC5=O)c(C=O)nc43)ncc2C#N)C1 [Example 63] and report it.
Reply text: 2

Inquiry: Find the recorded Peak Time tmax belonging to CO[C@@H]1CCCC1Oc1cc(NC(=O)N2CCCc3cc(CN4CCOCC4=O)c(C=O)nc32)ncc1C#N (stereo partly drawn) [Example 16] and report it.
Reply text: 2

Inquiry: Find the recorded Peak Time tmax belonging to CO[C@H]1CCN(c2cc(NC(=O)N3CCCc4cc(CN5CCOC5=O)c(C=O)nc43)ncc2C#N)C1 [Example 40] and report it.
Reply text: 2

Inquiry: Find the recorded Peak Time tmax belonging to COC1CCN(c2cc(NC(=O)N3CCCc4cc(CN5CCOCC5=O)c(C=O)nc43)ncc2C#N)C1 (stereo not drawn) [Example 4] and report it.
Reply text: 2

Inquiry: Find the recorded Peak Time tmax belonging to CO[C@H]1CCC1Oc1cc(NC(=O)N2CCCc3cc(CN4CCOCC4=O)c(C=O)nc32)ncc1C#N (stereo partly drawn) [Example 62] and report it.
Reply text: 2

Inquiry: Find the recorded Peak Time tmax belonging to CONc1cc(NC(=O)N2CCCc3cc(CN4CCOCC4=O)c(C=O)nc32)ncc1C#N [Example 54] and report it.
Reply text: 4

Inquiry: Find the recorded Peak Time tmax belonging to COC[C@@H](C)Nc1cc(NC(=O)N2CCCc3cc(CN4CCCCOC4=O)c(C=O)nc32)ncc1C#N [Example 29] and report it.
Reply text: 2

Inquiry: Find the recorded Peak Time tmax belonging to CO[C@@H]1CCN(c2cc(NC(=O)N3CCCc4cc(CN5CCOC5=O)c(C=O)nc43)ncc2C#N)C1 [Example 41] and report it.
Reply text: 2

Inquiry: Find the recorded Peak Time tmax belonging to COc1ccccc1Nc1cc(NC(=O)N2CCCc3cc(CN4CCOCC4=O)c(C=O)nc32)ncc1C#N [Example 8] and report it.
Reply text: 2

Recorded values, source patent US11667631B2.
